# Substrate: O=C(O)/C=C/c1ccc(O)c(O)c1
# method: purified protein
# condition-info: optimal conditions; co-substrate SAM
Would you kindly list kcat for each of these proteins?
// return numeric value only (unit: s⁻¹, not printed)

Asked: Return reported kcat; argument: AtCOMT (Arabidopsis thaliana; F174L) (protein) MGSTAETQLTPVQVTDDEAALFAMQLASASVLPMALKSALELDLLEIMAKNGSPMSPTEIASKLPTKNPEAPVMLDRILRLLTSYSVLTCSNRKLSGDGVERIYGLGPVCKYLTKNEDGVSIAALCLMNQDKVLMESWYHLKDAILDGGIPFNKAYGMSAFEYHGTDPRFNKVLNNGMSNHSTITMKKILETYKGFEGLTSLVDVGGGIGATLKMIVSKYPNLKGINFDLPHVIEDAPSHPGIEHVGGDMFVSVPKGDAIFMKWICHDWSDEHCVKFLKNCYESLPEDGKVILAECILPETPDSSLSTKQVVHVDCIMLAHNPGGKERTEKEFEALAKASGFKGIKVVCDAFGVNLIELLKKL
Given back: 0.369

Asked: Return reported kcat; argument: AtCOMT (Arabidopsis thaliana; H313A) (protein) MGSTAETQLTPVQVTDDEAALFAMQLASASVLPMALKSALELDLLEIMAKNGSPMSPTEIASKLPTKNPEAPVMLDRILRLLTSYSVLTCSNRKLSGDGVERIYGLGPVCKYLTKNEDGVSIAALCLMNQDKVLMESWYHLKDAILDGGIPFNKAYGMSAFEYHGTDPRFNKVFNNGMSNHSTITMKKILETYKGFEGLTSLVDVGGGIGATLKMIVSKYPNLKGINFDLPHVIEDAPSHPGIEHVGGDMFVSVPKGDAIFMKWICHDWSDEHCVKFLKNCYESLPEDGKVILAECILPETPDSSLSTKQVVAVDCIMLAHNPGGKERTEKEFEALAKASGFKGIKVVCDAFGVNLIELLKKL
Given back: 0.4

Asked: Return reported kcat; argument: AtCOMT (Arabidopsis thaliana; H313A/N129V) (protein) MGSTAETQLTPVQVTDDEAALFAMQLASASVLPMALKSALELDLLEIMAKNGSPMSPTEIASKLPTKNPEAPVMLDRILRLLTSYSVLTCSNRKLSGDGVERIYGLGPVCKYLTKNEDGVSIAALCLMVQDKVLMESWYHLKDAILDGGIPFNKAYGMSAFEYHGTDPRFNKVFNNGMSNHSTITMKKILETYKGFEGLTSLVDVGGGIGATLKMIVSKYPNLKGINFDLPHVIEDAPSHPGIEHVGGDMFVSVPKGDAIFMKWICHDWSDEHCVKFLKNCYESLPEDGKVILAECILPETPDSSLSTKQVVAVDCIMLAHNPGGKERTEKEFEALAKASGFKGIKVVCDAFGVNLIELLKKL
Given back: 0.498

Asked: Return reported kcat; argument: AtCOMT (Arabidopsis thaliana; N129V) (protein) MGSTAETQLTPVQVTDDEAALFAMQLASASVLPMALKSALELDLLEIMAKNGSPMSPTEIASKLPTKNPEAPVMLDRILRLLTSYSVLTCSNRKLSGDGVERIYGLGPVCKYLTKNEDGVSIAALCLMVQDKVLMESWYHLKDAILDGGIPFNKAYGMSAFEYHGTDPRFNKVFNNGMSNHSTITMKKILETYKGFEGLTSLVDVGGGIGATLKMIVSKYPNLKGINFDLPHVIEDAPSHPGIEHVGGDMFVSVPKGDAIFMKWICHDWSDEHCVKFLKNCYESLPEDGKVILAECILPETPDSSLSTKQVVHVDCIMLAHNPGGKERTEKEFEALAKASGFKGIKVVCDAFGVNLIELLKKL
Given back: 0.458
